Measured pEC50 accompanies every entry in the list below.
- ASSAY_TARGET: MRGPRX4-83S (Homo sapiens, UniProt Q96LA9, L83S)
- Sequence (Q96LA9 whole entry L83S): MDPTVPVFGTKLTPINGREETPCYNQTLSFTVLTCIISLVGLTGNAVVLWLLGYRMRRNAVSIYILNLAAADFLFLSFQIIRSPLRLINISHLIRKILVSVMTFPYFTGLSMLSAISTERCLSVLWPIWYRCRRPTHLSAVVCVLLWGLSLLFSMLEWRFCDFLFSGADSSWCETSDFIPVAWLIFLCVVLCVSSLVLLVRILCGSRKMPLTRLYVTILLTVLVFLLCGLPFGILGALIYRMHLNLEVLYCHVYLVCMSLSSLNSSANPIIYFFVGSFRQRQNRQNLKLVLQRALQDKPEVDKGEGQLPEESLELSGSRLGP
- EXPERIMENT_SUMMARY: β-arrestin assay (CHO β-arrestin human MRGPRX4-83S)
- Assay type: cell-based
- Parameters: host or cells: CHO β-arrestin cells
- REPORTED_CONDITIONS: Table 3; β-arrestin recruitment, CHO cells, MRGPRX4-83S; read-out: EC50 ± SEM
- Source text: For β-arrestin recruitment assays, recombinant Chinese hamster ovary (CHO) cells expressing the human MRGPRX4 were used (DiscoverX/Eurofins) which allowed to measure β-galactosidase complementation upon β-arrestin recruitment. For calcium mobilization assays, recombinant astrocytes expressing MRGPX4-83L, or LN229 glioblastoma cells natively expressing the MRGPRX4-83S, were used. […]
pEC50: −log10 of the molar value.
OBSERVATION_TYPE: pEC50

molecule=C#CCn1c(=O)c2c(nc(CCc3c(C)cccc3C)n2CC)n(CCCCP(=O)(O)O)c1=O observation_type=pEC50 operator== observed=10.31
molecule=C#CCn1c(=O)c2c(nc(CCc3ccc(CC)cc3)n2CC2CCCC2)n(CCCCP(=O)(O)O)c1=O observation_type=pEC50 operator== observed=7.90
molecule="C#CCn1c(=O)c2c(nc(CCc3ccccc3Br)n2C(C)CC)n(CCCCP(=O)(O)O)c1=O (centres unmarked)" observation_type=pEC50 operator== observed=10.12
molecule=C#CCn1c(=O)c2c(nc(CCc3ccccc3Br)n2CC2CCC2)n(CCCCP(=O)(O)O)c1=O observation_type=pEC50 operator== observed=9.53
molecule=C#CCn1c(=O)c2c(nc(CCc3ccc(Br)cc3)n2CC2CCCC2)n(CCCCP(=O)(O)O)c1=O observation_type=pEC50 operator== observed=7.87
molecule=C#CCn1c(=O)c2c(nc(CCc3ccccc3C)n2C(C)C)n(CCCCP(=O)(O)O)c1=O observation_type=pEC50 operator== observed=10.15
molecule=C#CCn1c(=O)c2c(nc(CCc3ccccc3F)n2C)n(CCCCP(=O)(O)O)c1=O observation_type=pEC50 operator== observed=8.83
molecule=C#CCn1c(=O)c2c(nc(Cc3ccc4ccccc4c3)n2CC)n(CCCCP(=O)(O)O)c1=O observation_type=pEC50 operator=< observed=4.00

* * *

# pEC50 listing for each entry below
- ASSAY_TARGET: human MRGPRX4-83L (Homo sapiens, UniProt Q96LA9)
- Construct: host or cells: CHO β-arrestin cells
- Sequence (Q96LA9 whole entry): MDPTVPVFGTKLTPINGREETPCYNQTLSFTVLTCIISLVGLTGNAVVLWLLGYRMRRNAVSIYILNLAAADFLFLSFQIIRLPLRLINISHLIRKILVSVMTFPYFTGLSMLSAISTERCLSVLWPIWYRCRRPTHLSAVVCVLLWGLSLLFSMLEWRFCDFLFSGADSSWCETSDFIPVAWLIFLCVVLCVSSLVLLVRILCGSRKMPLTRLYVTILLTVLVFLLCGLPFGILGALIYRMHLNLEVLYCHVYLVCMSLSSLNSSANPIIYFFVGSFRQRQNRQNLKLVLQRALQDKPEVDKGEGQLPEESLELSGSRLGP
- EXPERIMENT_SUMMARY: Calcium assay (human MRGPRX4 83L), recombinant astrocytes
- Type: cell-based
- REPORTED_CONDITIONS: Table 4; calcium mobilization, MRGPRX4-83L; read-out: EC50 ± SEM
pEC50: −log10 of the molar value.
OBSERVATION_TYPE: pEC50

compound_string=C#CCn1c(=O)c2c(nc(CCc3ccccc3I)n2C(C)C)n(CCCCP(=O)(O)O)c1=O assay_target="human MRGPRX4-83L (Homo sapiens, UniProt Q96LA9)" observation_type=pEC50 observed=8.94
compound_string=C#CCn1c(=O)c2[nH]c(CCc3ccccc3Br)nc2n(CCCCCCP(=O)(O)O)c1=O assay_target="human MRGPRX4-83L (Homo sapiens, UniProt Q96LA9)" observation_type=pEC50 observed=7.24
compound_string=C#CCn1c(=O)c2c(nc(CCc3ccccc3Br)n2CC2CCCC2)n(CCCCP(=O)(O)O)c1=O assay_target="human MRGPRX4-83L (Homo sapiens, UniProt Q96LA9)" observation_type=pEC50 observed=7.05
compound_string=C#CCn1c(=O)c2[nH]c(CCc3ccccc3F)nc2n(CCCCP(=O)(O)O)c1=O assay_target="human MRGPRX4-83L (Homo sapiens, UniProt Q96LA9)" observation_type=pEC50 observed=5.85
compound_string=C#CCn1c(=O)c2c(nc(CCc3ccc(Br)cc3)n2CC)n(CCCCP(=O)(O)O)c1=O assay_target="human MRGPRX4-83L (Homo sapiens, UniProt Q96LA9)" observation_type=pEC50 observed=6.51
compound_string=C#CCn1c(=O)c2c(nc(CCc3c(Cl)cccc3Cl)n2CC)n(CCCCP(=O)(O)O)c1=O assay_target="human MRGPRX4-83L (Homo sapiens, UniProt Q96LA9)" observation_type=pEC50 observed=8.70
compound_string=C#CCn1c(=O)c2c(nc(CCc3ccccc3Br)n2CC2CCCCC2)n(CCCCP(=O)(O)O)c1=O assay_target="human MRGPRX4-83L (Homo sapiens, UniProt Q96LA9)" observation_type=pEC50 observed=7.60
compound_string=C#CCn1c(=O)c2c(nc(CCc3ccccc3Br)n2C(C)C)n(CCCCP(=O)(O)O)c1=O assay_target="human MRGPRX4-83L (Homo sapiens, UniProt Q96LA9)" observation_type=pEC50 observed=9.16
compound_string=C#CCn1c(=O)c2c(nc(CCc3ccccc3Br)n2CC2CCC2)n(CCCCP(=O)(O)O)c1=O assay_target="human MRGPRX4-83L (Homo sapiens, UniProt Q96LA9)" observation_type=pEC50 observed=7.90
compound_string=C#CCn1c(=O)c2c(nc(CCc3ccccc3Br)n2C)n(CCCCCP(=O)(O)O)c1=O assay_target="human MRGPRX4-83L (Homo sapiens, UniProt Q96LA9)" observation_type=pEC50 observed=7.81
compound_string=C#CCn1c(=O)c2c(nc(CCc3ccccc3F)n2C)n(CCCCP(=O)(O)O)c1=O assay_target="human MRGPRX4-83L (Homo sapiens, UniProt Q96LA9)" observation_type=pEC50 observed=7.40
compound_string=C#CCn1c(=O)c2[nH]c(CCc3ccccc3I)nc2n(CCCCP(=O)(O)O)c1=O assay_target="human MRGPRX4-83L (Homo sapiens, UniProt Q96LA9)" observation_type=pEC50 observed=7.37
compound_string=C#CCn1c(=O)c2c(nc(CCc3ccccc3Br)n2C)n(CCCCCCP(=O)(O)O)c1=O assay_target="human MRGPRX4-83L (Homo sapiens, UniProt Q96LA9)" observation_type=pEC50 observed=7.24
compound_string=C#CCn1c(=O)c2nc(CCc3ccc(Br)cc3)[nH]c2n(CCCCP(=O)(O)O)c1=O assay_target="human MRGPRX4-83L (Homo sapiens, UniProt Q96LA9)" observation_type=pEC50 observed=6.73
compound_string=C#CCn1c(=O)c2c(nc(CCc3ccc(Br)cc3)n2C)n(CCCCP(=O)(O)O)c1=O assay_target="human MRGPRX4-83L (Homo sapiens, UniProt Q96LA9)" observation_type=pEC50 observed=6.87

* * *

- ASSAY_TARGET: MRGPRX4-83S (Homo sapiens, UniProt Q96LA9, L83S)
- EXPERIMENT_SUMMARY: Calcium assay (human glioblastoma LN229 cells expressing the MRGPRX4-83S)
- Assay type: cell-based
- Set-up: LN229 glioblastoma cells natively expressing the MRGPRX4-83S; endogenous in cells; host or cells: LN229 human glioblastoma cells
- REPORTED_CONDITIONS: Table 2; calcium mobilization, LN229 cells, MRGPRX4-83S; read-out: EC50 ± SEM
pEC50: −log10 of the molar value.
Label scheme for pEC50: lower than 8 is not satisfied, 8 and above is satisfied.

compound="C#CCn1c(=O)c2c(nc(CCc3cccc(OC)c3)n2C)n(CCCOP(=O)(O)O)c1=O [H-1, reference compound]" assay_target="MRGPRX4-83S (Homo sapiens, UniProt Q96LA9, L83S)" classification="not satisfied"
compound="C#CCn1c(=O)c2c(nc(-c3cccc(OC)c3)n2C)n(CCCOP(=O)(O)O)c1=O [A-1, reference compound]" assay_target="MRGPRX4-83S (Homo sapiens, UniProt Q96LA9, L83S)" classification="not satisfied"
compound=C#CCn1c(=O)c2[nH]c(CCc3ccc(OC)cc3OC)nc2n(CCCCP(=O)(O)O)c1=O assay_target="MRGPRX4-83S (Homo sapiens, UniProt Q96LA9, L83S)" classification="not satisfied"
compound=C#CCn1c(=O)c2[nH]c(CCc3ccccc3)nc2n(CCCCP(=O)(O)O)c1=O assay_target="MRGPRX4-83S (Homo sapiens, UniProt Q96LA9, L83S)" classification="not satisfied"
compound=C#CCn1c(=O)c2[nH]c(CCc3cccc(C)c3)nc2n(CCCCP(=O)(O)O)c1=O assay_target="MRGPRX4-83S (Homo sapiens, UniProt Q96LA9, L83S)" classification="not satisfied"
compound=CCn1c(=O)c2[nH]c(CCc3ccc(F)cc3)nc2n(CCCCP(=O)(O)O)c1=O assay_target="MRGPRX4-83S (Homo sapiens, UniProt Q96LA9, L83S)" classification="not satisfied"
compound=C#CCn1c(=O)c2c(nc(CCc3cccc(C(F)(F)F)c3)n2C)n(CCCCP(=O)(O)O)c1=O assay_target="MRGPRX4-83S (Homo sapiens, UniProt Q96LA9, L83S)" classification=satisfied
compound=C#CCn1c(=O)c2[nH]c(CCc3cccc(C(F)(F)F)c3)nc2n(CCCCP(=O)(O)O)c1=O assay_target="MRGPRX4-83S (Homo sapiens, UniProt Q96LA9, L83S)" classification="not satisfied"
compound=C#CCn1c(=O)c2[nH]c(CCc3cccc(Br)c3)nc2n(CCCCP(=O)(O)O)c1=O assay_target="MRGPRX4-83S (Homo sapiens, UniProt Q96LA9, L83S)" classification=satisfied
compound=CCCn1c(=O)c2[nH]c(C3CCCC3)nc2n(CCCCP(=O)(O)O)c1=O assay_target="MRGPRX4-83S (Homo sapiens, UniProt Q96LA9, L83S)" classification="not satisfied"
compound="CCCn1c(=O)c2c(nc(CCc3cccc(OC)c3)n2C)n(CCCOP(=O)(O)O)c1=O [H-2, reference compound]" assay_target="MRGPRX4-83S (Homo sapiens, UniProt Q96LA9, L83S)" classification="not satisfied"
compound=C#CCn1c(=O)c2c(nc(CCc3ccccc3Br)n2C)n(CCCCP(=O)(O)O)c1=O assay_target="MRGPRX4-83S (Homo sapiens, UniProt Q96LA9, L83S)" classification=satisfied
compound=CCn1c(=O)c2[nH]c(CCc3cccc(OC)c3)nc2n(CCCCP(=O)(O)O)c1=O assay_target="MRGPRX4-83S (Homo sapiens, UniProt Q96LA9, L83S)" classification="not satisfied"
compound="C#CCn1c(=O)c2[nH]c(/C=C/c3cccc(OC)c3)nc2n(CCCOP(=O)(O)O)c1=O [H-3, reference compound]" assay_target="MRGPRX4-83S (Homo sapiens, UniProt Q96LA9, L83S)" classification="not satisfied"
compound=C#CCn1c(=O)c2c(nc(CCc3cccc(OC)c3)n2C)n(CCCCP(=O)(O)O)c1=O assay_target="MRGPRX4-83S (Homo sapiens, UniProt Q96LA9, L83S)" classification="not satisfied"
compound=COc1cccc(CCc2nc3c([nH]2)c(=O)n(CC2CCC2)c(=O)n3CCCCP(=O)(O)O)c1 assay_target="MRGPRX4-83S (Homo sapiens, UniProt Q96LA9, L83S)" classification="not satisfied"
compound=C#CCn1c(=O)c2c(nc(CCc3ccccc3Br)n2C)n(CCCCP(=O)(O)OCC)c1=O assay_target="MRGPRX4-83S (Homo sapiens, UniProt Q96LA9, L83S)" classification="not satisfied"
compound=C#CCn1c(=O)c2[nH]c(CCc3cccc(OC)c3)nc2n(CCCCP(=O)(O)OCC)c1=O assay_target="MRGPRX4-83S (Homo sapiens, UniProt Q96LA9, L83S)" classification=satisfied
compound=CCCn1c(=O)c2[nH]c(-c3ccccc3)nc2n(CCCCP(=O)(O)O)c1=O assay_target="MRGPRX4-83S (Homo sapiens, UniProt Q96LA9, L83S)" classification="not satisfied"
compound=C#CCn1c(=O)c2[nH]c(CCc3cccc(F)c3)nc2n(CCCCP(=O)(O)O)c1=O assay_target="MRGPRX4-83S (Homo sapiens, UniProt Q96LA9, L83S)" classification="not satisfied"
